Source of measurements: patent US11033539B2

target: human M4 receptor (Homo sapiens (Human)); experiment: Radioligand (tritiated N-methylscopolamine) binding assay, M4; settings: Ki against the M4 receptor; membranes from CHO cells expressing human M4; tritiated N-methylscopolamine 1.5 nM; read-out: Ki
Sequence (P08173 whole entry): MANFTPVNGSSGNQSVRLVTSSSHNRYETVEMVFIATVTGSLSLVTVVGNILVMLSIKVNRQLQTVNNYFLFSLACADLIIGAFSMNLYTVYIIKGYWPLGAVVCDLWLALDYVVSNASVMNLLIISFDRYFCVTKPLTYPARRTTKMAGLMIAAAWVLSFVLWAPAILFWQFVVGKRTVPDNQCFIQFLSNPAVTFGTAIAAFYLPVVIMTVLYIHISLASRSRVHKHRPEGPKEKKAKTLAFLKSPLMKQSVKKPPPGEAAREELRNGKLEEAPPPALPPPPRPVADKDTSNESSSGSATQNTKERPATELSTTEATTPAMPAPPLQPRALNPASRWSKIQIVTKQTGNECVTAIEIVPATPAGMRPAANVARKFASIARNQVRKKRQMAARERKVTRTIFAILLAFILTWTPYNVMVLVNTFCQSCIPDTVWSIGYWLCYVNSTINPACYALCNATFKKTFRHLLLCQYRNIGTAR
pKi: −log10 of the molar value.
Below, each entry is listed alongside its reported pKi.

The examples below pair each entry with its known result.
# compound, reported-property, value-observed
records = [
    ("O=C(NCCC1CCN(Cc2ccccc2)CC1)C1CCN(c2cccc(OC(F)(F)F)c2)CC1", "pKi", "> 8.00"),
    ("CC(c1ccccc1)N1CCC(CCNC(=O)N2CCN(c3cc(F)c(F)c(F)c3)C[C@H]2C)CC1 (stereo partly drawn)", "pKi", "7.00 to 8.00"),
    ("COc1ncccc1-c1cc2ncc(C(=O)NCCC3CCN(Cc4ccccc4)CC3)c(C)n2n1", "pKi", "7.00 to 8.00"),
    ("O=C(NCCC1CCN(Cc2ccccc2)CC1)N1CCN(c2cc(F)c(F)c(F)c2)CC1", "pKi", "7.00 to 8.00"),
    ("O=C(NCCC1CCN(Cc2ccccc2)CC1)[C@H]1CCN(c2cccc(OC(F)(F)F)c2)C1", "pKi", "6.00 to 7.00"),
]

Incoming: Tell me pKi reported for `O=C(NCCN[C@@H]1CCN(Cc2ccccc2)C1)C1CCN(c2cccc(OC(F)(F)F)c2)CC1`
Outgoing: 6.00 to 7.00

Incoming: Tell me pKi reported for `O=C(NCCC1CCN(Cc2ccccc2)CC1)C1CCN(c2ccc(F)c(F)c2)CC1`
Outgoing: > 8.00

Incoming: Tell me pKi reported for `COc1cccc(C2CCN(C(=O)NCCC3CCN(Cc4ccccc4)CC3)CC2)c1`
Outgoing: 6.00 to 7.00

Incoming: Tell me pKi reported for `N#Cc1ccc(N2CCC(C(=O)NCCC3CCN(Cc4ccccc4)CC3)CC2)cc1OC(F)(F)F`
Outgoing: > 8.00

Incoming: Tell me pKi reported for `N#Cc1ccc(N2CCC(C(=O)NCCC3CCN(Cc4cccc5c4OCCO5)CC3)CC2)nc1`
Outgoing: 6.00 to 7.00

Incoming: Tell me pKi reported for `C[C@@H]1CN(c2ncc(C(=O)NC3CCC3)cn2)C[C@H](C)N1C(=O)NCCC1CCN(Cc2ccccc2)CC1`
Outgoing: 6.00 to 7.00

Incoming: Tell me pKi reported for `N#Cc1cc(OC(F)(F)F)cc(N2CCC(O)(C(=O)NCCC3CCN(Cc4ccccc4)CC3)CC2)c1`
Outgoing: 7.00 to 8.00

Incoming: Tell me pKi reported for `O=C(NCCC1CCN(Cc2ccccc2)CC1)C1CCN(c2ccc(OC(F)(F)F)nc2)CC1`
Outgoing: 7.00 to 8.00

Incoming: Tell me pKi reported for `COC(=O)c1cc(C)nc(N2CCN(C(=O)NCCC3CCN(Cc4ccccc4)CC3)[C@H](C)C2)n1`
Outgoing: 6.00 to 7.00
